- Test system: RXF 393
- Assay Procedure: NCI tumour cell line growth inhibition, 48 h
Where a name gives a salt, the structure may show the parent alone. The source made the active and inactive calls. No stated cut-off is given here; in the data, active = GI50 up to about 1.1 µM and inactive = higher.
Outcomes: active, inactive

1. N#Cc1nc(CCc2nc(C#N)c(N)o2)oc1N ... inactive
2. C[C@H]1NC(=O)C2CCCCN2C(=O)CN(C)C(=O)CNC(=O)C2CCCCN2C(=O)[C@@H](NC(=O)c2nc3ccccc3cc2O)[C@@H](C)NC(=O)C2CCCCN2C(=O)CN(C)C(=O)CNC(=O)[C@@H]2CCCCN2C(=O)C1NC(=O)c1nc2ccccc2cc1O (stereo partly specified) ... active
3. O=C1NC(Cc2ccccc2)C(=O)N2CCCC12 (stereo unspecified) ... inactive
4. C[N+](C)(C)CC(=O)N/N=C(/CC(=O)CC(C1=C(O)c2ccccc2OC1)c1ccccc1)C(=O)Nc1cccc(Cl)c1 (stereo unspecified) ... inactive
5. CN(CC(=O)O)S(=O)(=O)c1ccc(F)cc1 ... inactive
6. CCOC(=O)C(CC#Cc1ccc(C#CCC(NC(C)=O)C(=O)OCC)cc1)NC(C)=O (stereo unspecified) ... inactive
7. Cc1ccc(O)c(C(c2cc(C)ccc2O)c2cc([N+](=O)[O-])ccc2O)c1 ... inactive
8. CCc1cccc(CC)c1NC(=O)C(=O)Cc1nc2ccccc2o1 ... inactive
9. CC(=O)Nc1ccc(C(=O)NN2C(=O)CSC2c2ccc([N+](=O)[O-])cc2)cc1 (stereo unspecified) ... inactive
10. COc1cccc2c1C(CO)N1C(C#N)C3CC(C(=O)O)C(C1C2)N3C (stereo unspecified) ... inactive
11. COc1cccc2c(Nc3ccc(S(=O)(=O)N=C(N)N)cc3)c3ccc([N+](=O)[O-])cc3nc12 ... inactive
12. CC(=O)O[C@H]1[C@@H](OC2CCCC2(c2ccccc2)c2ccccc2)O[N+]([O-])=C[C@@]12COCc1cc3c(cc12)OCO3 (stereo partly specified) ... inactive
13. COc1cccc(/C=N/NC(=O)CSCC(=O)N/N=C/c2cccc(OC)c2OC)c1OC ... inactive
14. NC(=S)NNc1c([N+](=O)[O-])cnn(-c2ccccc2)c1=O ... inactive
15. Nc1ncnc2c1ncn2C1(CO)OC(CO)C(O)C1O (stereo unspecified) ... inactive
16. C[N+]12C=CC=C1C(N1CCCC1)c1scc(-c3ccccc3)c12 (stereo unspecified) ... inactive
17. CC(=O)Nc1ccc(/C=C/C(=O)N2CC(CCl)c3c2cc(N)c2ccccc32)cc1 (stereo unspecified) ... active
18. N#Cc1cc2c(n(C3OC(CO)C(O)C(O)C3O)c1=S)CCCCCC2 (stereo unspecified) ... inactive
19. CC(=O)OC(=O)O/C=C\CCl ... inactive
20. CCc1ccc2c(c1)N(CC(C)CN(C)C)c1ccccc1S2 (stereo unspecified) [ETYMEMAZINE HYDROCHLORIDE] ... inactive
21. COC(=O)C1CSC(c2csc(CCN)n2)=N1 (stereo unspecified) ... inactive
22. COc1cc2c(cc1OC)C1c3ccccc3CCN1CC2 (stereo unspecified) ... inactive
23. C[C@H]1[C@@H]2C[C@@H]3O[C@@]34[C@H]3CCC5Cc6nc7c(nc6C[C@@]5(C)[C@]3(O)CC(=O)[C@@]24CO[C@]12OC(C)(C)C[C@@H]2O)CC1CC[C@@H]2C3=C[C@H]4O[C@@]5(OC(C)(CO)C[C@@H]5O)[C@H](C)[C@@]4(O)[C@]3(C)[C@@H](O)CC2[C@]1(C)C7 (stereo partly specified) ... active
24. N#CC1(C#N)C(c2ccccc2)C=CC12OCCCO2 (stereo unspecified) ... inactive
25. CC1C(c2ccccc2)OP(=O)(OC(C#N)c2ccccc2)N1C (stereo unspecified) ... inactive
26. N#CSCC1COc2ccccc2O1 (stereo unspecified) ... inactive
27. CCOP(=O)(OCC)/C(F)=C/c1ccc(F)cc1 ... inactive
28. CCCC(=O)OC[n+]1ccc2c(C)c3[nH]c4ccc(OC)cc4c3c(C)c2c1 ... active
29. COC(=O)C1CC(OC(C)=O)C=C2C(=O)CCC21 (stereo unspecified) ... inactive
30. COC(=O)[C@H](Cc1c[nH]c2ccccc12)NC(=O)c1ccccc1I ... inactive
31. c1ccc2c(c1)c1c3n2-c2cc(on2)C3CCC1 (stereo unspecified) ... inactive

* * *

- Tested on: COLO 205
- Assay Procedure: NCI tumour cell line growth inhibition, 48 h
The source made the active and inactive calls. Rule as the data show it: active = GI50 up to about 1.1 µM and inactive = higher.
# reported GI50; entries follow
Measure Name: GI50

1. CCOC(=O)CCC(C(=O)OCC)n1nc2ccc(Nc3c(C)[n+]([O-])c4ccc(Cl)cc4[n+]3[O-])cc2n1 (stereo not drawn) ... 32.7 µM (inactive)
2. CCN(CC)CC(C(=O)Nc1c(C)cccc1C)/C(C)=N\NC(=S)NN (stereo not drawn) ... > 100 µM (inactive)
3. Cc1ccc(S(=O)(=O)Nc2ccccc2C(=O)c2ccc(C)c(C)c2)cc1 ... > 100 µM (inactive)
4. c1cc2c(cc1NC1=NCCO1)CCC2 ... > 10 µM (inactive)
5. CN(CCO)CCC1COc2ccccc2O1 (stereo not drawn) ... > 10 µM (inactive)
6. CCOP(=O)(OCC)/C(F)=C/c1ccc(F)cc1 ... > 100 µM (inactive)
7. O=c1cccccc1NCCCNc1cccccc1=O ... > 100 µM (inactive)
8. Cc1cc2c(=O)cc(-c3ccc(C(=O)O)cc3)oc2c(C(N)=O)c1C ... > 100 µM (inactive)
9. COc1cc(C(C)c2cc3c(cc2OCCO)OCO3)cc(OC)c1OC (stereo not drawn) ... 1.34 µM (inactive)
10. CCCN(CCC)C1CC(n2cc(C)c(=O)[nH]c2=O)OC1CO (stereo not drawn) ... > 100 µM (inactive)
11. COc1cc2c3c(c1O)C1(C=CC(=O)C=C1)CC3N(C)CC2 (stereo not drawn) [GLAZIOVINE] ... 5.4 µM (inactive)
12. COC(=O)N/N=C(/Cc1occc(=O)c1O)C(=O)Nc1ccc([N+](=O)[O-])cc1[N+](=O)[O-] ... > 100 µM (inactive)
13. CCOP1(=O)C=C(Sc2ccc([N+](=O)[O-])cc2[N+](=O)[O-])C(C)(C)O1 (stereo not drawn) ... 10.5 µM (inactive)
14. Cc1ccc(O)c(C(c2cc(C)ccc2O)c2cc([N+](=O)[O-])ccc2O)c1 ... 17.8 µM (inactive)
15. CCN(CC)C1C(=O)NC1C#Cc1ccccc1 (stereo not drawn) ... > 100 µM (inactive)
16. CC(C)OC(=O)c1ccc(CCC2=CC(=O)C=CC2=O)cc1 ... 8.85 µM (inactive)
17. CN1CCN(c2ncc3c(n2)sc2c(=O)n(-c4ccccc4)cnc23)CC1 ... > 100 µM (inactive)
18. COc1ccc(/N=C(/C[S+]([O-])c2ccc(C)cc2)C(F)(F)F)cc1 (stereo not drawn) ... > 100 µM (inactive)

* * *

- Tested on: HCT-116
- Assay Procedure: NCI tumour cell line growth inhibition, 48 h
Calls of active or inactive are those of the source. Rule as the data show it: active = GI50 up to about 1.1 µM and inactive = higher.
Measure Name: GI50

1) NS(=O)(=O)c1ccc(NCc2nc3ccccc3[nH]2)cc1 ... > 100 µM (inactive)
2) N#CSCC1COc2ccccc2O1 (stereo unspecified) ... 5.92 µM (inactive)
3) CC(CCC(=O)O)(c1cc(Br)c(O)c(Br)c1)c1cc(Br)c(O)c(Br)c1 ... 50.4 µM (inactive)
4) COc1cc(/C=C2/CCS(=O)(=O)c3ccc(C)cc3C2=O)cc(OC)c1OC ... 2.95 µM (inactive)
5) Oc1ccc(/N=N/c2ccc(Cl)cc2)cc1 ... 15.9 µM (inactive)
6) O=C(c1ccccc1)c1ccc2nc3n(c2c1)C(c1c(F)cccc1F)SC3 (stereo unspecified) ... 3.26 µM (inactive)

* * *

- Test system: OVCAR-3
- Assay Procedure: NCI tumour cell line growth inhibition, 48 h
Calls of active or inactive are those of the source. Rule as the data show it: active = GI50 up to about 1.1 µM and inactive = higher.
Measure Name: GI50

1. COc1ccc(/N=C(/C[S+]([O-])c2ccc(C)cc2)C(F)(F)F)cc1 (stereo unspecified) ... > 100 µM (inactive)
2. N#Cc1c(N2CCOCC2)ncn(-c2ccccc2)c1=O ... > 100 µM (inactive)
3. CN(CCO)CCC1COc2ccccc2O1 (stereo unspecified) ... > 10 µM (inactive)
4. C[C@]12CC[C@H](O)CC1=CC[C@@H]1C2CC[C@]2(C)NC(=O)C(C#N)CC12 (stereo partly specified) ... > 100 µM (inactive)
5. CCC(=O)N1C(=O)OCC1C(C)C (stereo unspecified) ... > 100 µM (inactive)
6. O=C(CNS(=O)(=O)Cc1ccccc1)NNc1ccccc1 ... 49.4 µM (inactive)

* * *

- System: A498
- Assay Procedure: NCI tumour cell line growth inhibition, 48 h
Calls of active or inactive are those of the source. Rule as the data show it: active = GI50 up to about 1.1 µM and inactive = higher.
Measure Name: GI50

1) CC(=O)Oc1ccc2c3c1[C@@H]1O[C@@H]1c1cccc(c1-3)[C@@H]1O[C@H]21 ... 2.19 µM (inactive)
2) C=CCCCC1(C)CCNC1=S (stereo not given) ... > 100 µM (inactive)
3) O=C1NC(Cc2ccccc2)C(=O)N2CCCC12 (stereo not given) ... > 100 µM (inactive)
4) Oc1ccc(/N=N/c2ccc(Cl)cc2)cc1 ... 17.3 µM (inactive)
5) CC1(C)N=C(N)N=C(N)N1c1ccc(Cl)cc1 ... 58.6 µM (inactive)

Entry source: ChEMBL document CHEMBL1201862
